What composite z-score was measured for each of the following?
Tested on: Chordin-like protein 2 (CHRDL2)
EXPERIMENTAL PROTOCOL: CHRDL2 small-molecule binders, primary screen, biochemical, small-molecule microarray, 635 nm fluorescence (AID 1126);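 note: printed compound slides probed with Chrdl2 protein at 4 µg/mL for 1 h at 4 C; score merges 667 nm emission intensity with signal to noise over three replicate slides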
CONDITION PARAMETERS: small-molecule microarray binding, fluorescence 635 nm; higher = more signal
One number for each entry.

Some compounds with recorded composite z-score:
Report composite z-score for O=C(NCC(F)(F)F)[C@@H]1c2ccccc2C(=O)N(Cc2ccccc2Cl)[C@H]1c1ccc(CO)cc1
-0.584

Report composite z-score for [N-]=[N+]=NCc1ccccc1C[C@@]1(C(=O)N2CCOCC2)N=C(c2ccc(OCCCO)cc2)O[C@@H]1c1ccccc1N=[N+]=[N-]
-1.07

Report composite z-score for CCOC(=O)C[C@H]1[C@H](OC(=O)c2cc3ccccc3oc2=O)[C@@H](NC(=O)c2ccc3ccccc3c2)c2cc(OCCCO)ccc2N1C(=O)c1ccc2ccccc2n1
0.731

Then there is this compound:
Report composite z-score for C[C@@H]1NC(=O)CC=C[C@@H](C)[C@@H]2C=C[C@H](O)[C@@H](COC(=O)[C@H](C)NC(=O)CC=C[C@@H](C)[C@@H]3C=C[C@H](O)[C@@H](COC1=O)O3)O2
0.786

###

EXPERIMENTAL PROTOCOL: small-molecule microarray binders of probe aWnt5a, primary screen, biochemical, biotinylated probe, 635/667 nm fluorescence (AID 1113);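 note: score merges 667 nm fluorescence intensity with signal-to-noise per printed feature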
CONDITION PARAMETERS: higher = more signal
OBSERVABLE: composite z-score
Answers are plain numbers.

Report composite z-score for CCOC(=O)C1=CC[C@@H](c2ccc(-c3ccc(OCc4ccccc4)cc3)c(OC)c2)N(S(=O)(=O)c2ccc(C)cc2)[C@H]1c1ccccc1
0.0279

Report composite z-score for CO[C@]12C=C(Br)[C@@H](C[C@@H]1c1ccccc1)[C@@]1(CO1)C2=O
-0.0125

Report composite z-score for CCCNC(=O)[C@@H]1c2ccccc2C(=O)N(Cc2cc(F)cc(C(F)(F)F)c2)[C@H]1c1ccc(CO)cc1
0.0079

Report composite z-score for COc1cccc([C@H]2N[C@H](C(=O)O)CC[C@@H]2C)c1
-0.131

Report composite z-score for Cc1ccc(N2C(=O)c3ccccc3[C@@H](C(=O)NCC(F)(F)F)[C@@H]2c2ccc(CO)cc2)nc1
-0.226

Report composite z-score for CC(C)[Si]1(C(C)C)OCc2cc(C3CC3)nc(-c3ccccc3)c21
-0.15

Report composite z-score for C=CCN1C(=O)[C@@]2(Cc3ccccc3)N=C(c3ccc(OCCCO)cc3)O[C@H]2c2ccccc21
-0.0814

Report composite z-score for COC(=O)[C@@]1(Cc2ccc(OC)cc2)[C@H]2c3cc(C(=O)N(C)C)n(Cc4ccc(C)c(F)c4F)c3C[C@H]2CN1C(=O)c1ccccc1
0.148

# per-item lookup of composite z-score; items listed below
1. CN(C)CCCC[C@@H]1NC(=O)[C@@H]2C[C@H](C(=O)O)[C@H](c3ccc(O)cc3)N2C1=O
2. COc1ccc(C(O)C2C=CC3C(=O)N(C)C(=O)C3N2N2CCCCC2)cc1OCc1ccccc1 (stereo unspecified)
3. CC(C)N1CC=CC23O[C@@H]4/C=C\CCCOC(=O)C4[C@H]2C(=O)N(CCCCCO)[C@@H]3C1=O (stereo partly specified)
4. CCCNC(=O)[C@@H]1c2ccccc2C(=O)N(C2CCCCC2)[C@H]1c1ccc(CO)cc1
5. C#C[C@H](O[Si](C#Cc1ccccc1)(C(C)C)C(C)C)c1ccccc1

1: 0.0078; 2: 0.0391; 3: -0.176; 4: -0.131; 5: -0.162

###

TARGET DESC: Torsin-1A-interacting protein 2 (Homo sapiens) (UniProt Q8NFQ8)
Sequence (Q8NFQ8 whole entry, looked up): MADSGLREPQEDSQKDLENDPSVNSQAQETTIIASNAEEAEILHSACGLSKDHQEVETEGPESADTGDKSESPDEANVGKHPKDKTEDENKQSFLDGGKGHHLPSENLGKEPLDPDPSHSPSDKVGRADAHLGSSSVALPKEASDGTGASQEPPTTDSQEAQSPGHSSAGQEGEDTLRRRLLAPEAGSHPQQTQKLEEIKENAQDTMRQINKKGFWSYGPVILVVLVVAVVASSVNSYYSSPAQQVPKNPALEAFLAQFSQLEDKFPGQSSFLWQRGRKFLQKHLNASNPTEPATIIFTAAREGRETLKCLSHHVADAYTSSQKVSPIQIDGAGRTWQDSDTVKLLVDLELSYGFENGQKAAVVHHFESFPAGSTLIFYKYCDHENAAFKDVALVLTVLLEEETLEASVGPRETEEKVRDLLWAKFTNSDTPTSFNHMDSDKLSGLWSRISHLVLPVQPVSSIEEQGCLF
EXPERIMENTAL PROTOCOL: LULL1 binders on small-molecule microarray, primary screen, cell lysate, human LULL1 lysate, 635/667 nm fluorescence (AID 1092);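 note: probe is lysate of COS7 cells overexpressing human LULL1; score merges per-feature 667 nm fluorescence with signal-to-noise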
CONDITION PARAMETERS: hLULL1 lysate binding, 635 nm fluorescence, higher = more signal
Rule: composite z-score of 0.9 or more gives 1; anything lower gives -1.

Illustrative cases are given below, each with its answer.
Evaluate COC(=O)[C@@]1(Cc2ccc(OC)cc2)[C@H]2c3cc(C(=O)N(C)C)n(CCc4ccc(OC)c(Br)c4)c3C[C@H]2CN1C(=O)c1ccccc1 : composite z-score at minimum 0.9?
1

Evaluate C[C@@H]1C=CCC(=O)OC[C@H]2O[C@@H](C=C[C@@H]2O)[C@H](C)C=CCC(=O)OC[C@H]2O[C@H]1C=C[C@@H]2O : composite z-score at minimum 0.9?
-1

Evaluate C=C(CCCC)C(=O)CC[C@@H](OC(C)=O)c1ccccc1OCCO : composite z-score at minimum 0.9?
-1

Continuing:
Evaluate COC(=O)C[C@H]1O[C@]2(C(=O)N(Cc3ccccc3)c3ccc(I)cc32)[C@@H](C)[C@@H]1[Si](C)(C)c1ccc(OC)cc1 : composite z-score at minimum 0.9?
-1

Evaluate COc1ccc(NN2C(C(O)c3cc(OC)c(OC)c(OC)c3)C=CC3C(=O)N(C4CCCCC4)C(=O)C32)cc1 (centres undefined) : composite z-score at minimum 0.9?
1

Evaluate CCOC(=O)[C@H]1C/C=C/C[C@H](C(=O)OCC)C(=O)O[C@H]2[C@@H](OC)O[C@H](CO)[C@@H](OC(=O)Nc3ccc(Br)cc3)[C@@H]2OC1=O : composite z-score at minimum 0.9?
1

###

What composite z-score was measured for each of the following?
EXPERIMENTAL PROTOCOL: compound binding in COS7 lysate, probe aLAP1, primary screen, cell lysate, small-molecule microarray (AID 1124);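 note: lysate comes from COS7 cells expressing LAP1 and is applied at 0.3 µg/mL; score merges spot fluorescence near 667 nm with signal-to-noise over triplicate slides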
CONDITION PARAMETERS: probe aLAP1, fluorescence, higher = more signal
One number for each entry.

Some compounds with recorded composite z-score:
Report composite z-score for CCOC(=O)C1=C[C@@H](c2ccccc2)N(S(=O)(=O)c2ccc(C)cc2)[C@H]1c1ccc(F)cc1
0.284

Report composite z-score for C=C(CCCC)/C(=C/C[C@@H](OC(=O)c1ccncc1)c1cccc(OCCO)c1)c1cc(C(=O)OC)ccc1OC
1.05

Report composite z-score for C=C[C@H](OC)[C@@H](OC(=O)Nc1ccc(SC)cc1)c1ccc(O)c(F)c1
0.694

Report composite z-score for O=C1O[C@@H](c2ccccc2)[C@@H](c2ccccc2)N2[C@@H](c3ccc(OCCO)cc3)[C@]3(C(=O)Nc4ccc(C#CCCO)cc43)[C@@H](C(=O)N3CCN(c4ncccn4)CC3)[C@H]12
0.188

Report composite z-score for C=CCN1C(=O)[C@]2(O[C@H](CCn3cc(CCO)nn3)[C@@H]([Si](C)(C)c3ccc(OC)cc3)[C@@H]2C)c2cc(NC(=O)c3ccc(OC)cc3)ccc21
-0.0812

Report composite z-score for COc1ccc(CCN2C(=O)[C@@]3(c4ccc([N+](=O)[O-])cc4)CC(=O)N(CC45CC6CC(CC(C6)C4)C5)[C@@H]3c3ccc(CO)cc32)cc1
-0.415

# per-item lookup of composite z-score; items listed below
1. Cc1ccc(S[C@]2(C(=O)NC(C)C)CC(=O)N(Cc3cc(C(F)(F)F)cc(C(F)(F)F)c3)[C@@H]2c2ccc(CO)cc2I)cc1
2. C/C(=N\O)C(=O)NCCCCCNC(=O)OCc1ccccc1
3. CCN1C(C)=C(C(=O)OC)[C@@H](c2ccccc2)N2C(=O)[C@](O)(C(=O)OC)[C@@H](c3ccccc3)C(C(C)=O)=C12
4. [N-]=[N+]=NCc1ccccc1C[C@@]1(C(=O)O)N=C(c2ccc(OCCCO)cc2)O[C@@H]1c1ccccc1N=[N+]=[N-]

1. 0.917
2. 0.199
3. -0.141
4. 0.497

###

TARGET DESC: Streptavidin (Streptomyces avidinii) (UniProt P22629)
Sequence (P22629 whole entry, looked up): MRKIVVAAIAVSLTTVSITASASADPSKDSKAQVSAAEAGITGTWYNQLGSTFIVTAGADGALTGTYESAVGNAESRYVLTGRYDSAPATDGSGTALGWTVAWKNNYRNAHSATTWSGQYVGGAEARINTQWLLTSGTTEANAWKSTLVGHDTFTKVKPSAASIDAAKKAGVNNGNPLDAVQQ
EXPERIMENTAL PROTOCOL: streptavidin binders on small-molecule microarray, primary screen, artefact control for SMM compound annotation, biophysical, 635/667 nm fluorescence (AID 1147);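 note: signal reflects streptavidin binding to arrayed compounds as a control protein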
CONDITION PARAMETERS: streptavidin binding, higher = more signal
Rule: composite z-score of 0.7 or more gives true; anything lower gives false.

Evaluate CCCC[C@@H]1C[C@H]1[C@@H](NC(=O)c1ccccc1)c1ccccc1C(F)(F)F : composite z-score at minimum 0.7?
true

Evaluate C=CCc1cccc([C@@H]2[C@@H](C)CC[C@H]3C(=O)N4[C@H](c5cccc(CC=C)c5)[C@@H](C)CC[C@H]4C(=O)N23)c1 : composite z-score at minimum 0.7?
true

Evaluate CCC1=C2CN(Cc3ccccc3Br)[C@@H]([C@@H](O)Cc3ccccc3)C2C=CCC1 (stereo not given in full) : composite z-score at minimum 0.7?
true

###

EXPERIMENTAL PROTOCOL: HepG2 cell viability effects, profiling panel, calcein-AM fluorescence, 48 h, basal (AID 1164); note: test concentration not given here
CONDITION PARAMETERS: higher = more signal
OBSERVABLE: z-score
Give bare numbers.

Some compounds with recorded z-score:
Report z-score for COC(=O)[C@H]1[C@@H]2COc3ccccc3[C@H]2N[C@H]1C(=O)OC
0.648

Report z-score for O=C1C2C=CC(C(O)C#Cc3ccccc3)N(Nc3ccccc3)C2C(=O)N1c1ccccc1 (centres undefined)
-0.374

# per-item lookup of z-score; items listed below
1. CO[C@H]1O[C@H](CO)[C@@H](OC(=O)Nc2ccc3c(c2)OCO3)[C@H](OC(=O)Nc2ccccc2)[C@@H]1OC(=O)Nc1ccccc1
2. COc1cc2c(cc1OC)CN(C(=O)[C@@H]1[C@H]3C(=O)O[C@H](c4ccccc4)[C@H](c4ccccc4)N3[C@H](c3ccccc3OCCO)[C@@]13C(=O)Nc1ccccc13)CC2
3. CO[C@H]1COC(=O)CC=C[C@H](C)COC(=O)[C@@H](OCc2ccccc2)C=C[C@@H]1C
4. COCCOC(=O)N1C(=O)[C@@]2(c3cc(C#CCC(C(=O)OC)C(=O)OC)ccc31)[C@H](C(=O)N1CCN(c3ncccn3)CC1)[C@H]1C(=O)O[C@H](c3ccccc3)[C@H](c3ccccc3)N1[C@@H]2c1ccc(O)cc1
5. C[C@@H]1CC[C@H]2C(=O)N3[C@@H](CC[C@@H](C)[C@@H]3c3cccc(N4CCOCC4)c3)C(=O)N2[C@H]1c1cccc(N2CCOCC2)c1
6. CCCCCCc1nc(-c2cc(C)c(OC)c(C)c2)cc2c1[Si](C(C)C)(C(C)C)O[C@H]2c1ccccc1
7. O=C(NCc1ccccc1)c1ccc(Br)cc1[N+](=O)[O-]
8. CO[C@H]1COC(=O)[C@H](C)COC(=O)[C@H](Cc2ccccc2)NC(=O)CC=C[C@H]1C

1: -1.27; 2: -0.174; 3: 0.806; 4: 2.17; 5: -0.894; 6: -0.59; 7: 0.0565; 8: 0.284

# per-item lookup of z-score; items listed below
1. C[C@@H]1NC(=O)CC=C[C@@H](C)[C@@H]2C=C[C@H](O)[C@@H](COC(=O)[C@H](C)NC(=O)CC=C[C@@H](C)[C@@H]3C=C[C@H](O)[C@@H](COC1=O)O3)O2
2. O=C1c2ccccc2[C@@]2(Cc3ccccc3N(CC(F)(F)F)C2=O)[C@H](c2ccc(CO)cc2)N1C1CCCCC1
3. CCCNC(=O)[C@@H]1c2ccccc2C(=O)N(Cc2cc(F)cc(C(F)(F)F)c2)[C@H]1c1ccc(CO)cc1

-0.195
-0.0145
-0.0223

Report z-score for COc1ccc([Si](C)(C)[C@H]2[C@H](CCO)O[C@@]3(C(=O)N(Cc4ccc(N5CCCCC5=O)cc4)c4ccccc43)[C@@H]2C)cc1
-0.263
